assay: Cell lysate reaction of pMT enzymes with psi-ionone, irones quantified by HS-SPME-GCMS; type: biochemical; details: pMT1_E153 mutants; AUC vs non-mutated (=1)
The reader will find reported fold change in cis-α-irone produced values listed item by item below.
MEASURED_ENDPOINT: fold change in cis-α-irone produced

MOLECULE: pMT1_E153P: pMT1 with E153P (protein) MPQEARTPQQQVTADEVGDWYDKFGEVYHLTLGESVHCGLWFPPDAPVPQDMELVTMSSQAQDRYTDYLIETLDPKAGQHLLDIGCGTGRTALKAARQRGIAVTGVAVSKEQIAAANRLAAGHGLTERLTFEVADAMRLPYEDESFDCAWAIPSLCHMDRAKALGEAWRVLKPGGDLLVLESVVTEELTEPETALFETLYAANVPPRLGEFFDIVSGAGFHTLSLKDLSANLAMTMNVFALGVYSRRAEFTERFGAEFVDGLLAGLGSAQETLIRKTRFFMATLRKPAV
MEASURED_ENDPOINT: fold change in cis-α-irone produced
VALUE_OBSERVED: 0.0
//
MOLECULE: pMT1_E153N: pMT1 with E153N (protein) MPQEARTPQQQVTADEVGDWYDKFGEVYHLTLGESVHCGLWFPPDAPVPQDMELVTMSSQAQDRYTDYLIETLDPKAGQHLLDIGCGTGRTALKAARQRGIAVTGVAVSKEQIAAANRLAAGHGLTERLTFEVADAMRLPYEDESFDCAWAINSLCHMDRAKALGEAWRVLKPGGDLLVLESVVTEELTEPETALFETLYAANVPPRLGEFFDIVSGAGFHTLSLKDLSANLAMTMNVFALGVYSRRAEFTERFGAEFVDGLLAGLGSAQETLIRKTRFFMATLRKPAV
MEASURED_ENDPOINT: fold change in cis-α-irone produced
VALUE_OBSERVED: 0.0
